- MEASUREMENT_TARGET: Adenosine receptor A3 (Homo sapiens, UniProt P0DMS8)
- Sequence (P0DMS8 whole entry): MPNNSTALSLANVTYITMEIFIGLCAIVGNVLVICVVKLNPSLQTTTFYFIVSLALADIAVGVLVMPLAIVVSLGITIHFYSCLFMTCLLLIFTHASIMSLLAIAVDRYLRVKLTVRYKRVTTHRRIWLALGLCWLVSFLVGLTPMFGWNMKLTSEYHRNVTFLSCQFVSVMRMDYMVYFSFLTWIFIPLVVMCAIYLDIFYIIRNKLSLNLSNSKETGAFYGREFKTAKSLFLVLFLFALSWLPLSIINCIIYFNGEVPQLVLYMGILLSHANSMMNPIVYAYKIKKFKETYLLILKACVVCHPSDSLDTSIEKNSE
- ASSAY_OVERVIEW: Agonist activity at human A3AR expressed in FlpIn-CHO cells assessed as inhibition of forskolin-stimulated cAMP accumulation preincubated for 10 mins followed by forskolin addition measured after 30 mins by Alphascreen assay
Lab note: class by EC50, see low (below 300 nM), mid (300 nM to below 400 nM), high (400 nM or more)

SMILES_ENTRY | CATEGORY_LABEL
Nc1sc(-c2ccc(C(=O)NCCCCCCCNc3ncnc4c3ncn4[C@@H]3O[C@H](CO)[C@@H](O)[C@H]3O)cc2)c(-c2cccc(C(F)(F)F)c2)c1C(=O)c1ccccc1 | mid
Nc1sc(-c2ccccc2C(=O)NCCCCCCNc2ncnc3c2ncn3[C@@H]2O[C@H](CO)[C@@H](O)[C@H]2O)c(-c2cccc(C(F)(F)F)c2)c1C(=O)c1ccccc1 | low
O=C(NCCCCCCNc1ncnc2c1ncn2[C@@H]1O[C@H](CO)[C@@H](O)[C@H]1O)c1ccc(-c2sccc2-c2cccc(C(F)(F)F)c2)cc1 | mid
CCNC(=O)[C@H]1O[C@@H](n2cnc3c(NCCCCCCNC(=O)c4ccc(-c5sc(N)c(C(=O)c6ccccc6)c5-c5cccc(C(F)(F)F)c5)cc4)ncnc32)[C@H](O)[C@@H]1O | high
Nc1sc(-c2cccc(C(=O)NCCCCCCNc3ncnc4c3ncn4[C@@H]3O[C@H](CO)[C@@H](O)[C@H]3O)c2)c(-c2cccc(C(F)(F)F)c2)c1C(=O)c1ccccc1 | low
O=C(NCCCCCCNc1ncnc2c1ncn2[C@@H]1O[C@H](CO)[C@@H](O)[C@H]1O)c1cccc(-c2cccs2)c1 | high
Nc1sc(-c2ccc(C(=O)NCCCCCCNc3ncnc4c3ncn4[C@@H]3O[C@H](CO)[C@@H](O)[C@H]3O)cc2)cc1C(=O)c1ccccc1 | high
Nc1cc(-c2cccc(C(F)(F)F)c2)c(-c2ccc(C(=O)NCCCCCCNc3ncnc4c3ncn4[C@@H]3O[C@H](CO)[C@@H](O)[C@H]3O)cc2)s1 | low
Nc1sc(-c2ccc(C(=O)NCCCCCNc3ncnc4c3ncn4[C@@H]3O[C@H](CO)[C@@H](O)[C@H]3O)cc2)c(-c2cccc(C(F)(F)F)c2)c1C(=O)c1ccccc1 | high
CC(=O)Nc1sc(-c2ccc(C(=O)NCCCCCCNc3ncnc4c3ncn4[C@@H]3O[C@H](CO)[C@@H](O)[C@H]3O)cc2)c(-c2cccc(C(F)(F)F)c2)c1C(=O)c1ccccc1 | high
O=C(NCCCCCCNc1ncnc2c1ncn2[C@@H]1O[C@H](CO)[C@@H](O)[C@H]1O)c1ccc(-c2scc(C(=O)c3ccccc3)c2-c2cccc(C(F)(F)F)c2)cc1 | high
Nc1ccc(-c2cccc(C(=O)NCCCCCCNc3ncnc4c3ncn4[C@@H]3O[C@H](CO)[C@@H](O)[C@H]3O)c2)s1 | low

---

- MEASUREMENT_TARGET: Adenosine receptor A3 (Homo sapiens) (UniProt P0DMS8)
- Sequence (P0DMS8 whole entry): as above
- ASSAY_OVERVIEW: Agonist activity at human A3AR expressed in FlpIn-CHO cells assessed as inhibition of forskolin-stimulated cAMP accumulation preincubated for 10 mins followed by forskolin addition measured after 30 mins by Alphascreen assay relative to control
- Format: functional, cell-based

SMILES_ENTRY | MEASUREMENT_TARGET | Emax / %
Nc1cc(-c2cccc(C(F)(F)F)c2)c(-c2ccc(C(=O)NCCCCCCNc3ncnc4c3ncn4[C@@H]3O[C@H](CO)[C@@H](O)[C@H]3O)cc2)s1 | Adenosine receptor A3 (Homo sapiens) (UniProt P0DMS8) | 58
CCNC(=O)[C@H]1O[C@@H](n2cnc3c(NCCCCCCNC(=O)c4ccc(-c5sc(N)c(C(=O)c6ccccc6)c5-c5cccc(C(F)(F)F)c5)cc4)ncnc32)[C@H](O)[C@@H]1O | Adenosine receptor A3 (Homo sapiens) (UniProt P0DMS8) | 75
O=C(NCCCCCCNc1ncnc2c1ncn2[C@@H]1O[C@H](CO)[C@@H](O)[C@H]1O)c1cccc(-c2cccs2)c1 | Adenosine receptor A3 (Homo sapiens) (UniProt P0DMS8) | 107

---

- MEASUREMENT_TARGET: UniProtKB P29275
- ASSAY_OVERVIEW: Agonist activity at human A2BAR expressed in FlpIn-CHO cells assessed as […] cAMP accumulation preincubated for 40 mins followed by forskolin addition measured after 30 mins by Alphascreen assay relative to control
- Format: functional, cell-based

SMILES_ENTRY | MEASUREMENT_TARGET | Emax [%]
Nc1sc(-c2ccc(C(=O)NCCCCCCNc3nc(Cl)nc4c3ncn4[C@@H]3O[C@H](CO)[C@@H](O)[C@H]3O)cc2)c(-c2cccc(C(F)(F)F)c2)c1C(=O)c1ccccc1 | UniProtKB P29275 | 39
CCNC(=O)[C@H]1O[C@@H](n2cnc3c(NCCCCCCNC(=O)c4ccc(-c5sc(N)c(C(=O)c6ccccc6)c5-c5cccc(C(F)(F)F)c5)cc4)ncnc32)[C@H](O)[C@@H]1O | UniProtKB P29275 | 38
Nc1sc(-c2ccc(C(=O)NCCCCCCCNc3ncnc4c3ncn4[C@@H]3O[C@H](CO)[C@@H](O)[C@H]3O)cc2)c(-c2cccc(C(F)(F)F)c2)c1C(=O)c1ccccc1 | UniProtKB P29275 | 38

---

- MEASUREMENT_TARGET: Adenosine receptor A2a (Homo sapiens)
- Sequence (P29274 whole entry): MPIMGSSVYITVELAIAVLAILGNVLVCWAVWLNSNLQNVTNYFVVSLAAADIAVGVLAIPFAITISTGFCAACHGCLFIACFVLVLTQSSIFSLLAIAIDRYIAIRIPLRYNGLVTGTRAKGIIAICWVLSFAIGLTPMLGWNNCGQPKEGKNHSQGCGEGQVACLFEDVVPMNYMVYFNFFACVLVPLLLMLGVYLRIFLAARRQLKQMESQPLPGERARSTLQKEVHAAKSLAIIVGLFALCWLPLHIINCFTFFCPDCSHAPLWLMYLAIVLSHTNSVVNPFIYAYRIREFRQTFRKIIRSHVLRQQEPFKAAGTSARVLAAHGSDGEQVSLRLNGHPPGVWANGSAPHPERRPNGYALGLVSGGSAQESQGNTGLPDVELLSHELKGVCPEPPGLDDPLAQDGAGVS
- ASSAY_OVERVIEW: Agonist activity at human A2A-AR expressed in FlpIn-CHO cells assessed as inhibition of forskolin-stimulated cAMP accumulation preincubated for 40 mins followed by forskolin addition measured after 30 mins by Alphascreen assay
pEC50: −log10 of the molar value.
Below: a set of entries, each annotated with reported pEC50.

SMILES_ENTRY | MEASUREMENT_TARGET | pEC50
O=C(NCCCCCCNc1ncnc2c1ncn2[C@@H]1O[C@H](CO)[C@@H](O)[C@H]1O)c1ccc(-c2sccc2-c2cccc(C(F)(F)F)c2)cc1 | Adenosine receptor A2a (Homo sapiens) | 6.19
Nc1sc(-c2ccc(C(=O)NCCCCCCNc3ncnc4c3ncn4[C@@H]3O[C@H](CO)[C@@H](O)[C@H]3O)cc2)cc1C(=O)c1ccccc1 | Adenosine receptor A2a (Homo sapiens) | 6.45
Nc1sc(-c2ccc(C(=O)NCCCCCCNc3ncnc4c3ncn4[C@@H]3O[C@H](CO)[C@@H](O)[C@H]3O)cc2)c(-c2cccc(C(F)(F)F)c2)c1C(=O)c1ccccc1 | Adenosine receptor A2a (Homo sapiens) | 5.64

---

- MEASUREMENT_TARGET: UniProt:P29275
- ASSAY_OVERVIEW: Agonist activity at human A2BAR expressed in FlpIn-CHO cells assessed as […] cAMP accumulation preincubated for 40 mins followed by forskolin addition measured after 30 mins by Alphascreen assay relative to control
- Format: functional, cell-based
READOUT_KIND: Emax

SMILES_ENTRY | RESULT
O=C(NCCCCCCNc1ncnc2c1ncn2[C@@H]1O[C@H](CO)[C@@H](O)[C@H]1O)c1cccc(-c2cccs2)c1 | 42%
Nc1sc(-c2cccc(C(=O)NCCCCCCNc3ncnc4c3ncn4[C@@H]3O[C@H](CO)[C@@H](O)[C@H]3O)c2)c(-c2cccc(C(F)(F)F)c2)c1C(=O)c1ccccc1 | 43%
Nc1ccc(-c2cccc(C(=O)NCCCCCCNc3ncnc4c3ncn4[C@@H]3O[C@H](CO)[C@@H](O)[C@H]3O)c2)s1 | 45%

---

- MEASUREMENT_TARGET: Adenosine receptor A2b (Homo sapiens)
- Sequence (whole entry): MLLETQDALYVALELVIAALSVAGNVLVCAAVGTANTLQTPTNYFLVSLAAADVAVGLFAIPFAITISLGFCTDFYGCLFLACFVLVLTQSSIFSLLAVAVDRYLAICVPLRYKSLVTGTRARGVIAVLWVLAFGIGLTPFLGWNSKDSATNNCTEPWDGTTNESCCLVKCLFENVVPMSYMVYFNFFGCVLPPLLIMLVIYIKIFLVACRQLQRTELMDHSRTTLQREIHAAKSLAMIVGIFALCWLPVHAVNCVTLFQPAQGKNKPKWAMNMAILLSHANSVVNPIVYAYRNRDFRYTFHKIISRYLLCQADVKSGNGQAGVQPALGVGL
- ASSAY_OVERVIEW: Agonist activity at human A2BAR expressed in FlpIn-CHO cells assessed as […] cAMP accumulation preincubated for 40 mins followed by forskolin addition measured after 30 mins by Alphascreen assay relative to control
- Format: functional, cell-based
Below: a set of entries, each annotated with reported Emax.

SMILES_ENTRY | Emax, %
Nc1sc(-c2ccc(C(=O)NCCCCCCNc3ncnc4c3ncn4[C@@H]3O[C@H](CO)[C@@H](O)[C@H]3O)cc2)cc1C(=O)c1ccccc1 | 40
Nc1nc(NCCCCCCNC(=O)c2ccc(-c3sc(N)c(C(=O)c4ccccc4)c3-c3cccc(C(F)(F)F)c3)cc2)c2ncn([C@@H]3O[C@H](CO)[C@@H](O)[C@H]3O)c2n1 | 43
O=C(NCCCCCCNc1ncnc2c1ncn2[C@@H]1O[C@H](CO)[C@@H](O)[C@H]1O)c1ccc(-c2scc(C(=O)c3ccccc3)c2-c2cccc(C(F)(F)F)c2)cc1 | 49
O=C(NCCCCCCNc1ncnc2c1ncn2[C@@H]1O[C@H](CO)[C@@H](O)[C@H]1O)c1cccc(-c2cc(C(=O)c3ccccc3)cs2)c1 | 27
O=C(NCCCCCCNc1ncnc2c1ncn2[C@@H]1O[C@H](CO)[C@@H](O)[C@H]1O)c1ccc(-c2sccc2-c2cccc(C(F)(F)F)c2)cc1 | 44
Nc1sc(-c2ccccc2C(=O)NCCCCCCNc2ncnc3c2ncn3[C@@H]2O[C@H](CO)[C@@H](O)[C@H]2O)c(-c2cccc(C(F)(F)F)c2)c1C(=O)c1ccccc1 | 46
